Target: human GM-CSF (human, UniProt P04141 18-144)
Sequence (P04141 18-144): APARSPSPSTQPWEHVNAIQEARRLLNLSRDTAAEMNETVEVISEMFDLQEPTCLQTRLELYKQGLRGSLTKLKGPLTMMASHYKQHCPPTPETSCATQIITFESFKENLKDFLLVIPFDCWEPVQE
Experiment: cell-based or functional assay
property_label: IC50 x-fold improved compared to BVD2-21C11, TF-1 proliferation assay (fold)
The figure you give is taken to be in fold; do not add the unit.

>>> measured("MOR04290 Fab (Fab, V domains shown, Fab with FLAG and 6xHis tags) VH: QVQLVESGGGLVQPGGSLRLSCAASGFTFSSYWMNWVRQAPGKGLEWVSGIESKWAGGATYYAAGVKGRFTISRDNSKNTLYLQMNSLRAEDTAVYYCARGFGTDFWGQGTLVTVSS VL: DIELTQPPSVSVAPGQTARISCSGDSIGKKYAYWYQQKPGQAPVLVIYKKRPSGIPERFSGSNSGNTATLTISGTQAEDEADYYCSSWDSTGLVFGGGTKLTVLG")
9.4
>>> measured("MOR04354 Fab (Fab, V domains shown, X-cloned Fab (VH of MOR04290 x VL of MOR04302) with FLAG and 6xHis tags) VH: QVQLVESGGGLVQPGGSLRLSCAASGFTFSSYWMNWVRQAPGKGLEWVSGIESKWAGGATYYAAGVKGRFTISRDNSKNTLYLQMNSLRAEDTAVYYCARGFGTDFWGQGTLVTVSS VL: DIELTQPPSVSVAPGQTARISCSGDSIGKKYAYWYQQKPGQAPVLVIYKKRPSGIPERFSGSNSGNTATLTISGTQAEDEADYYCSAWGDKGMVFGGGTKLTVLG")
117
>>> measured("MOR04252 Fab (Fab, V domains shown, Fab with FLAG and 6xHis tags) VH: QVQLVESGGGLVQPGGSLRLSCAASGFTFSSYWMNWVRQAPGKGLEWVSGIENKYAGGATYYAASVKGRFTISRDNSKNTLYLQMNSLRAEDTAVYYCARGFGTDFWGQGTLVTVSS VL: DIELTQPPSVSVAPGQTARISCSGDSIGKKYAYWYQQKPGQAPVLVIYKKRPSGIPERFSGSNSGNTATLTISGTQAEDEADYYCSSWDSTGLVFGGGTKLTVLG")
3.2
>>> measured("MOR04350 Fab (Fab, V domains shown, X-cloned Fab (VH of MOR04287 x VL of MOR04302) with FLAG and 6xHis tags) VH: QVQLVESGGGLVQPGGSLRLSCAASGFTFSSYWMNWVRQAPGKGLEWVSGIENKRAGGATFYAASVKGRFTISRDNSKNTLYLQMNSLRAEDTAVYYCARGFGTDFWGQGTLVTVSS VL: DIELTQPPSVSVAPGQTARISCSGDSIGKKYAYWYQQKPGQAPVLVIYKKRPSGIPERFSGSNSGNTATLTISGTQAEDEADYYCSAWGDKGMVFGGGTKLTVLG")
80

# input Item MOR04287 Fab (Fab, V domains shown, Fab with FLAG and 6xHis tags) VH: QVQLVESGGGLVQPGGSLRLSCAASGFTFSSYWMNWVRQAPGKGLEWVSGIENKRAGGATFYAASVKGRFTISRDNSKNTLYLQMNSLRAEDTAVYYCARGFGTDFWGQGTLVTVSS VL: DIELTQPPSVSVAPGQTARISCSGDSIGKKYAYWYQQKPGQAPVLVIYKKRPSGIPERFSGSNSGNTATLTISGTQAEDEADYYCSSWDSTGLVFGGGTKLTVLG : provide IC50 x-fold improved compared to BVD2-21C11, TF-1 proliferation assay
# output 1.9

# input Item MOR04251 Fab (Fab, V domains shown) VH: QVQLVESGGGLVQPGGSLRLSCAASGFTFSSHWMSWVRQAPGKGLEWVSNIWRGPYIYYADSVKGRFTISRDNSKNTLYLQMNSLRAEDTAVYYCARFQGYGGGFDYWGQGTLVTVSS VL: DIELTQPPSVSVAPGQTARISCSGDNLPGKYVHWYQQKPGQAPVLVIYYDSNRPSGIPERFSGSNSGNTATLTISGTQAEDEADYYCQSRTQTTIVFGGGTKLTVLG : provide IC50 x-fold improved compared to BVD2-21C11, TF-1 proliferation assay
# output 14.2
